The following compounds are shown together with reported logD values.
Assay: physchem
Settings: PBS, pH 7
Experimental Readout: logD

smiles_structure=NC(=O)c1cc(-c2ccc(F)cc2)c2ccc(CCc3cccnc3)cc2n1 observed_result=2.85
smiles_structure=NC(=O)c1cc(-c2ccc(F)cc2)c2ccc(CCc3ccncc3)cc2n1 observed_result=2.88
smiles_structure=NC(=O)c1cc(-c2ccc(F)cc2)c2ccc(CN3C(=O)CCC3=O)cc2n1 observed_result=2.24
smiles_structure=NC(=O)c1cc(-c2ccc(F)cc2)c2ccc(Cc3ccncc3)cc2n1 observed_result=2.7
smiles_structure=NC(=O)c1cc(-c2ccc(F)cc2)c2ccc(CCc3cncnc3)cc2n1 observed_result=2.31
